Answer each item with its documented A1 EC50 as a ratio of that of NECA.
Target: UniProt P30542
Sequence (P30542 whole entry): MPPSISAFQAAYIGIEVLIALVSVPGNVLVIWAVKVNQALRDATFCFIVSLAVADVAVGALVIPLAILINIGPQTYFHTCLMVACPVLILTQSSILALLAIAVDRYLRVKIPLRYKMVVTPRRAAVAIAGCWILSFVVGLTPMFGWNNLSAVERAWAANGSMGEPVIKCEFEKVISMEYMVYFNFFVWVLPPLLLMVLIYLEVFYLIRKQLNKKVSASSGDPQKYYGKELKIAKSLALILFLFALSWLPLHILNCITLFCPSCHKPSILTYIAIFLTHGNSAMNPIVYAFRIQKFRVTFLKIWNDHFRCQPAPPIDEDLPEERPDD
Assay: Agonist activity against adenosine 1 receptor (CHO cells, forskolin-enhanced cAMP/SPAP reporter)
Assay type: cell-based
Settings: CHO cells transfected with human receptor; forskolin-enhanced cAMP via SPAP; mean of all the versions tested
Numbers only.

Solved entries (count: 3):
molecule	A1 EC50 as a ratio of that of NECA
CCn1nnc([C@H]2O[C@@H](n3cnc4c(N)nc(N[C@H]5CC[C@H](N)CC5)nc43)[C@H](O)[C@@H]2O)n1 [Example 53]	298.30
CCn1nnc(C2OC(n3cnc4c(NCc5cccc(I)c5)nc(NC5CCNC5)nc43)C(O)C2O)n1 (centres unmarked) [Example 23]	159
CCn1nnc([C@H]2O[C@@H](n3cnc4c(NCC(c5ccccc5)c5ccccc5)nc(NCCN)nc43)[C@H](O)[C@@H]2O)n1 [Example 83]	130.10

Please give A1 EC50 as a ratio of that of NECA for each item listed below.
1. CCn1nnc(C2OC(n3cnc4c(NCC(c5ccccc5)c5ccccc5)nc(NC5CCNC5)nc43)C(O)C2O)n1 (centres unmarked) [Example 84]
2. CCn1nnc(C2OC(n3cnc4c(NC5CCCC5)nc(NCCN5CCCCC5)nc43)C(O)C2O)n1.O=CO.O=CO (centres unmarked) [Example 104]
3. CCn1nnc([C@H]2O[C@@H](n3cnc4c(NCC(c5ccccc5)c5ccccc5)nc(NC5CCNC5)nc43)[C@H](O)[C@@H]2O)n1.O=C(O)C(F)(F)F.O=C(O)C(F)(F)F.O=C(O)C(F)(F)F (some centres unmarked) [Example 2]
4. Cn1cnc(CCNc2nc(NC(CO)Cc3ccccc3)c3ncn(C4OC(c5nnn(C)n5)C(O)C4O)c3n2)c1 (centres unmarked) [Example 32]
5. Cn1nnc(C2OC(n3cnc4c(NCc5cccc(I)c5)nc(NCCN5CCCC5)nc43)C(O)C2O)n1.O=CO.O=CO (centres unmarked) [Example 108]

[490.80, 113.40, 123.6, 56.2, 111.30]

---

Target: adenosine 2a receptor (Homo sapiens, UniProt P29274)
Sequence (P29274 whole entry): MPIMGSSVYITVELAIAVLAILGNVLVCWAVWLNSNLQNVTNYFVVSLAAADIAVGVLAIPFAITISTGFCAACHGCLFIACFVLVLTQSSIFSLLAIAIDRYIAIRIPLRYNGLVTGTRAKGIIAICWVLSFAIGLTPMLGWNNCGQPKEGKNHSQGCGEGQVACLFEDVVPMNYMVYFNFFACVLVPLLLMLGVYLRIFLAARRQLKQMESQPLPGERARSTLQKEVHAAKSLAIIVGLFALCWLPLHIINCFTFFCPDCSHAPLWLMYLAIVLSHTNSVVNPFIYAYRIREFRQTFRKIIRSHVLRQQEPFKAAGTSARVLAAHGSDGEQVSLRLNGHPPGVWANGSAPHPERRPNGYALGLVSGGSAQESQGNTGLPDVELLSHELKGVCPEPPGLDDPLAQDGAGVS
Test: Agonist activity against adenosine 2a receptor (CHO cells, cAMP/SPAP reporter)
Format: cell-based
Conditions: CHO cells transfected with human receptor; basal cAMP via SPAP; mean of all the versions tested
Procedure: (1) Agonist activity against adenosine 2a, adenosine 1 and adenosine 3 receptor subtypes. The effect of test compounds was determined by their effects on basal levels of cAMP (A2a) or on forskolin-enhanced cAMP (A1 and A3) as reflected by changes in levels of SPAP.
parameter measured: A2a EC50 as a ratio of that of NECA
One number for each entry.

These solved cases illustrate the format of a correct answer.
compound	assayed target	meas value
CCn1nnc([C@H]2O[C@@H](n3cnc4c(N)nc(NCCc5ccc(OC)c(OC)c5)nc43)[C@H](O)[C@@H]2O)n1.O=C(O)C(F)(F)F	adenosine 2a receptor (Homo sapiens, UniProt P29274)	0.14
CCn1nnc([C@H]2O[C@@H](n3cnc4c(NCCC(C)(C)C)nc(N[C@@H]5CCC[C@H]5O)nc43)[C@H](O)[C@@H]2O)n1.O=C(O)C(F)(F)F.O=C(O)C(F)(F)F	adenosine 2a receptor (Homo sapiens, UniProt P29274)	4.24

Turning now to a further record.
Give the value of A2a EC50 as a ratio of that of NECA reported for the following: CCn1nnc(C2OC(n3cnc4c(NCCN5CCOCC5)nc(NC(CO)Cc5ccccc5)nc43)C(O)C2O)n1 (stereo not drawn)
6.11
